# experimental system: matriptase (Homo sapiens)
# Construct: purchased R&D Systems 3946-SEB
# Sequence (Q9Y5Y6 615-855 limits assumed): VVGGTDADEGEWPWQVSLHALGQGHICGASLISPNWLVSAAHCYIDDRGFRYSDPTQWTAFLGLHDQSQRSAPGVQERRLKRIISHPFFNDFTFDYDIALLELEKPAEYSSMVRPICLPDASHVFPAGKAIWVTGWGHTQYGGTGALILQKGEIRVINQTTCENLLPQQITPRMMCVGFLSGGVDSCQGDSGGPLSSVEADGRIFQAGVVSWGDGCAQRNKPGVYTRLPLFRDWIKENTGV
# assay protocol: FRET peptide cleavage efficiency with matriptase
# Type: biochemical
# conditions used: t = 60 min; 200 uM linker, 1 ug/ml protease, 37° C., buffer B pH 9.0
Square brackets hold non-standard residues; d marks the D form. Ends that are not written are not given here. Tyr(3-NO2) = N[C@@H](Cc1ccc(O)c([N+](=O)[O-])c1)C(=O)O; 2Abz = Nc1ccccc1C(=O)O
Record label 1 whenever % cleavage Matriptase t = 60 min is at 90% or higher; record label 0 when lower.

As a guide, the following entries are already answered.
{"construct sequence": "RGRRVANPLGLAGSG ([2Abz]RGRRVANPLGLAGSG[Tyr(3-NO2)]-NH2) [LNK050]", "class label": "label 1"}
{"construct sequence": "RYGKSAPLGLAG ([2Abz]RYGKSAPLGLAG[Tyr(3-NO2)]-NH2) [LNK027]", "class label": "label 1"}
{"construct sequence": "RGRRPLGLAGGSG ([2Abz]RGRRPLGLAGGSG[Tyr(3-NO2)]-NH2) [LNK051]", "class label": "label 0"}
{"construct sequence": "RQRRSAAPLGLAG ([2Abz]RQRRSAAPLGLAG[Tyr(3-NO2)]-NH2) [LNK028]", "class label": "label 0"}
{"construct sequence": "RGRRHSSKLQPLGYFGKL ([2Abz]RGRRHSSKLQPLGYFGKL[Tyr(3-NO2)]-NH2) [LNK062]", "class label": "label 1"}
{"construct sequence": "SGRVANYFGKL ([2Abz]SGRVANYFGKL[Tyr(3-NO2)]-NH2) [LNK054]", "class label": "label 0"}

Prompt line: Has RQRRSAPLGLAG ([2Abz]RQRRSAPLGLAG[Tyr(3-NO2)]-NH2) [LNK009] a recorded % cleavage Matriptase t = 60 min greater than or equal to 90%?
Response line: label 0

Prompt line: Determine whether this sequence has % cleavage Matriptase t = 60 min no lower than 90%: SSLYSSPG ([2Abz]SSLYSSPG[Tyr(3-NO2)]-NH2) [LNK065]
Response line: label 0
